system: ATP; experiment: switch fluorescence ratio, 500 uM ATP over buffer (Cy3 cluster intensity, sum of 5 cycles each) (fold (ratio)); higher = stronger signal-on switching upon ATP binding; sequences stand for … in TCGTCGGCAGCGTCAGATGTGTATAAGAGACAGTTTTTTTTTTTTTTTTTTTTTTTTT…TC; conditions: aptamer strand: ATP DNA aptamer (quencher-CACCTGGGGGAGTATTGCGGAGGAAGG + anchor), 100 nM annealed; ATP concentration: 500 uM;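 further: ATP exposure 15 min at 22 °C before imaging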
Catalogue of switch fluorescence ratio readings, one per entry.

- Residue sequence: "TTGGGAGCGG"
  switch fluorescence ratio: 0.977
- Residue sequence: "GGGGCTAGTA"
  switch fluorescence ratio: 0.991
- Residue sequence: "CGGGCTTCGA"
  switch fluorescence ratio: 0.993

Tell me its switch fluorescence ratio given CCGTTGGGTG as the entry.
1.12

Let me know recorded switch fluorescence ratio for AGCCTGATCT , thanks.
1.04

Give switch fluorescence ratio for the following sequence: CGGCTCAACT
1.01

Recall and state the measured switch fluorescence ratio for GGGCCTATAG .
0.986

Source listed as the supplement of paper PMC10126150.
